- SYSTEM: Neu5Ac(a2-6)Gal
- ASSAY INFO: glycan array binding signal (z-score within array); higher = stronger binding
- DETAILS: glycan notation: IUPAC condensed, linker removed
Shown is part of a subset that was picked to be rich in the strongest signals.
glycan array binding signal (z-score): recorded values
READOUT TYPE: glycan array binding signal (z-score)

XL-35 (Xenopus laevis) (protein) MLVHILLLLVTGGLSQSCDPVVIVASKNMVKQLDCDKFRNCKEIKDSNEEAQDGIYTLTSPDGISYQTFCDMTTNGGGWTLVASVHENNMAGKCTIGDRWSSQQGNRADYPEGDGNWANYNTFGSAGGATSDDYKNPGYYDIEAYNLGVWHVPNKTPLSVWRNSSLQRYRTTDGILFKHGGNLFSLYRIYPVKYGIGSCSKDSGPTVPVVYDLGSANLTASFYSPGFRSQFTPGYIQFRPINTEKAALALCPGMKMESCNVEHVCIGGGGYFPEADPRQCGDFAAYDFNGYGTKKFNSAGIEITEAAVLLFYL: -0.04
Gal 8 (Mus musculus), Q9JL15 (protein) MGGSHHHHHHGMASMLSLNNLQNIIYNPIIPYVGTITEQLKPGSLIVIRGHVPKDSERFQVDFQLGNSLKPRADVAFHFNPRFKRSSCIVCNTLTQEKWGWEEITYDMPFRKEKSFEIVFMVLKNKFQVAVNGRHVLLYAHRISPEQIDTVGIYGKVNIHSIGFRFSSASALPHTLGDLQSMETSALGLTQINRENIQKPGKLQLSLPFEARLNASMGPGRTVVIKGEVNTNARSFNVDLVAGKTRDIALHLNPRLNVKAFVRNSFLQDAWGEEERNITCFPFSSGMYFEMIIYCDVREFKVAINGVHSLEYKHRFKDLSSIDTLSVDGDIRLLDVRSW: -0.511
